Assay: cell viability in Huh7 cells, primary screen, cytotoxicity control for HCV replication inhibitor project, CellTiter-Glo luminescence, basal, 48 h (AID 1143);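 also: Huh7 hepatoma cells carrying a hepatitis C replication reporter with no stimulus; test concentration not given here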
Conditions: Huh7 HCV replicon, called active from +8 up or from −8 down
Active and inactive are the calls of the source.
Please reply with one of these outcomes: active, inactive

In: Outcome logged for "CC(C)=NO[C@H](C)c1cn([C@H](CO)Cc2ccccc2)nn1" in this assay:
Out: inactive

In: What did the test return for CCOC(=O)[C@H](Cc1ccccc1)NC(=O)CCC1CC(OC(=O)NCCc2ccc(F)cc2)CC2(CCCC(COC(=O)NCCCN3CCCC3=O)O2)O1 (stereo partly specified) ?
Out: inactive

In: Call for entry "CCN1C(=O)[C@@H]2[C@H]3C(=CC[C@@H]2C1=O)C1(OCCCO1)[C@H]1O[C@H]1[C@H]3O" :
Out: active

In: # fetch the recorded call for "CO[C@H]1COC(=O)CCC[C@@H](C)[C@H](OC)COC(=O)[C@@H]2CCCN2C(=O)CC=C[C@@H]1C" here
Out: inactive

In: I'd appreciate the recorded outcome for "O=C(NN=C1C[C@@H](O)[C@@H](O)[C@@H]2[C@@H]3C(=O)N(C4CCCCC4)C(=O)[C@@H]3CC[C@@H]12)OCc1ccccc1" from this test.
Out: inactive

In: What did this assay record as the result for "O=C(C=Cc1ccc2c(c1)OCO2)c1ccc(F)cc1" ?
Out: inactive

In: I'd appreciate the recorded outcome for O=C1CCCC(C2=CCCCC2=O)C1 (stereo unspecified) from this test.
Out: inactive

In: How was "CSCC[C@@H]1NC(=O)CC=C[C@@H](C)COC(=O)[C@@H](C)COC1=O" classified in this test?
Out: inactive

In: Fill in: this test's call for CCOC(=O)[C@H](CC(C)C)NC(=O)CCC1CC(OC(=O)NCc2cccc3ccccc23)CC2(CCCC(COC(=O)NCC3CCCCC3)O2)O1 (stereo partly specified) is ___
Out: inactive

In: What outcome does the record of this test show for "CCN1C(=O)[C@H]2[C@H]3[C@H](O)[C@H](O)CC(=O)[C@@H]3CC[C@H]2C1=O" ?
Out: inactive

In: Called result for "C#CCCCON=C1C[C@@H](O)[C@@H](O)[C@@H]2[C@@H]3C(=O)N(CC)C(=O)[C@@H]3CC[C@@H]12"
Out: inactive

In: Please state the recorded outcome for this compound: "CC(C)CON=C1C[C@@H](O)[C@@H](O)[C@@H]2[C@@H]3C(=O)N(C(C)(C)C)C(=O)[C@@H]3CC[C@H]12"
Out: inactive

In: // return assay outcome for "CC(C)=CCCC(C)=CCON=C1C[C@@H](O)[C@@H](O)[C@@H]2[C@@H]3C(=O)N(C(C)(C)C)C(=O)[C@@H]3CC[C@@H]12"
Out: inactive

In: // param item: "CC(CCN1CCc2nc(-c3ccccc3)c(-c3ccccc3)cc2C1)=NOC[C@@H](O)[C@H]1O[C@@H]2OC(C)(C)O[C@@H]2[C@H]1O" ; yields the recorded call
Out: inactive

In: Please indicate how the test categorized "CCOC(=O)NN=C1C[C@@H](O)[C@@H](O)[C@@H]2[C@@H]3C(=O)N([C@@H](C)c4ccccc4)C(=O)[C@@H]3CC[C@@H]12" .
Out: inactive

In: Record lookup: outcome of this test for CCOC(=O)[C@H](CC(C)C)NC(=O)CCC1CC(OC(=O)NCCc2ccc(F)cc2)CC2(CCCC(COC(=O)NCCOc3ccccc3)O2)O1 (stereo partly specified) ?
Out: inactive

In: Short answer needed: outcome of this test for "O=C1C=C[C@@H](O)[C@@H]2[C@@H]3C(=O)N(c4ccc(F)cc4F)C(=O)[C@@H]3CC[C@@H]12" ?
Out: inactive

In: Recorded call for "C#CCCCON=C1C[C@@H](O)[C@@H](O)[C@@H]2[C@@H]3C(=O)N(Cc4ccccc4)C(=O)[C@@H]3CC[C@@H]12" ?
Out: inactive

In: Which outcome was assigned to "COc1ccc(O[C@@H]2[C@H](O)CO[C@@H]2C=Cc2ccccc2)cc1" in this test?
Out: inactive

In: Called result for "CCc1cc2c(nc1CC)CCN(CCC(C)=NO[C@@H](C)c1cn([C@H](CO)Cc3ccccc3)nn1)C2"
Out: inactive

In: # outcome recorded in this test, key = "COc1cccc([C@H]2Oc3ccc(OC)cc3C(=NOC[C@@H](C)[C@H](OCc3ccccc3)C(C)C)[C@@H]2O)c1"
Out: inactive

In: For this compound, state the assay outcome: "CCCCc1nc2c(c3c1C[C@H](C)OC3)CN(CCOc1ccccc1)CC2"
Out: inactive

In: Hi, sorry to bother you, what did the test record for "Cn1c(=O)n2n(c1=O)[C@H]1[C@H](O)[C@@H]3O[C@@H]3C(=NOCc3ccccc3)[C@H]1CC2" ?
Out: inactive

In: Assay result, entry "Cc1ccc(S(=O)(=O)N[C@@H]2COC(=O)[C@@H](C)COC(=O)CC=C[C@H]2C)cc1" — outcome?
Out: inactive

In: Check the results log: what was the call for "O=C1C=C[C@@H](O)[C@@H]2[C@@H]3C(=O)N(C[C@@H]4CCCO4)C(=O)[C@@H]3CC[C@@H]12" ?
Out: inactive

In: Look up the recorded call for "CO[C@@H]1COC(=O)CC=C[C@@H](C)[C@H](OC)COC(=O)[C@@H](C)COC(=O)CC=C[C@H]1C" in this test.
Out: inactive

In: For "O=C1[C@H]2[C@H]3[C@H](O)[C@H](O)CC(=NO[C@@H]4O[C@H](CO)[C@@H](O)[C@H](O)[C@H]4O)[C@H]3CC[C@H]2C(=O)N1c1cccc(Oc2ccccc2)c1" , which call appears in the assay record?
Out: inactive

In: For this compound, state the assay outcome: "C[C@@H](c1ccccc1)N1C(=O)[C@H]2[C@H]3[C@H](O)[C@H](O)CC(=NOCc4ccccc4)[C@H]3CC[C@H]2C1=O"
Out: inactive

In: Field: outcome | Entry: CCOC(=O)[C@H](CC(C)C)NC(=O)CCC1CC(OC(=O)NCc2ccc3c(c2)OCO3)CC2(CCCC(COC(=O)NCC3CCCCC3)O2)O1 (stereo partly specified)
Out: inactive

In: Hi team, can someone confirm the assay call for "Cc1ccc(S(=O)(=O)OC[C@H]2CN3[C@H](c4ccc(Br)cc4)[C@@H](C)CC[C@H]3C(=O)O2)cc1" ?
Out: inactive

In: Write down the call the test reported for this compound. Item: CCOC(=O)[C@H](CC(C)C)NC(=O)CCC1CC(OC(=O)NCc2ccc3c(c2)OCO3)CC2(CCCC(COC(=O)NCc3cccc(C(F)(F)F)c3)O2)O1 (stereo partly specified)
Out: inactive

---

For each record, write down the corresponding composite z-score.
Molecular target: Torsin-1A (Homo sapiens) (UniProt O14656)
Sequence (O14656 whole entry, looked up): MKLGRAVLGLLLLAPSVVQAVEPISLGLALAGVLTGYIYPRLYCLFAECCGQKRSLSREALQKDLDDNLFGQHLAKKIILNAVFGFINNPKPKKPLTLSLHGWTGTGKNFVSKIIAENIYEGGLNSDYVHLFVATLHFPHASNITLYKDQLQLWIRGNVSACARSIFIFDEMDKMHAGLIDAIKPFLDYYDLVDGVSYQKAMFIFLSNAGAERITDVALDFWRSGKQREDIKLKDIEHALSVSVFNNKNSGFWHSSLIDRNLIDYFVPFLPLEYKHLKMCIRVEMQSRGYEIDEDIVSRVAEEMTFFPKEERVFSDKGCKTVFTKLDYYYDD
Test: small-molecule binders of mutant TOR1A in lysate, primary screen, cell lysate, small-molecule microarray, COS7 lysate, 635/667 nm fluorescence (AID 1150);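 also: score pools 667 nm emission and signal to noise measuring lysate protein binding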
Conditions: COS7 hTOR1A mutant lysate, 635 nm fluorescence, higher = more signal
Give the value as a plain number.

In: Need composite z-score, item "Cc1ccc(S(=O)(=O)N[C@H]2COC(=O)CC=C[C@H](C)[C@@H](NS(=O)(=O)c3ccc(C)cc3)COC(=O)CC=C[C@@H]2C)cc1"
Out: 0.741

In: Look at this compound and give its reported composite z-score. CCOC(=O)[C@H](CC(C)C)NC(=O)CCC1CC(OC(=O)NCc2ccc3c(c2)OCO3)CC2(CCCC(COC(=O)NCCCN3CCCC3=O)O2)O1 (some centres not stated)
Out: 0.92

In: Item CCOC(=O)[C@H](CC(C)C)NC(=O)CCC1CC(OC(=O)NCc2cccc3ccccc23)CC2(CCCC(COC(=O)NCc3cccc(C(F)(F)F)c3)O2)O1 (some centres not stated) has what recorded composite z-score?
Out: 0.261

In: Request the reported composite z-score associated with "CC(C)=CCCC(C)=CCON=C1C[C@@H](O)[C@@H](O)[C@@H]2[C@@H]3C(=O)N(c4ccc(F)cc4F)C(=O)[C@@H]3CC[C@H]12"
Out: 0.171

In: Need composite z-score, item "CC(C)CON=C1C[C@@H](O)[C@@H](O)[C@@H]2[C@@H]3C(=O)N(C4CCCCC4)C(=O)[C@@H]3CC[C@H]12"
Out: 0.375

In: Reported composite z-score, compound "CO[C@@H]1C=CCC(=O)N2CCC[C@H]2C(=O)OC[C@@H](C)C(=O)OC[C@H]1C" : ____
Out: 0.652

In: Requested read-out: composite z-score. Entry: "C[C@@H](c1ccccc1)N1C(=O)[C@H]2[C@H]3[C@H](O)[C@H](O)CC(=O)[C@H]3CC[C@H]2C1=O"
Out: 0.452
